target: MC1-R (B-16 mouse melanoma cells) (Mus musculus); construct: B-16 mouse melanoma cells (containing MC1-R); endogenous in cells; host or cells: B-16 mouse melanoma cells; assay: Competitive inhibition binding assay, 125I-NDP-α-MSH, MC1-R; settings: 1 μM compound; inhibition of 125I-NDP-α-MSH binding; mean of triplicates; results less than 0% reported as 0%
Sequence (Q01727 whole entry): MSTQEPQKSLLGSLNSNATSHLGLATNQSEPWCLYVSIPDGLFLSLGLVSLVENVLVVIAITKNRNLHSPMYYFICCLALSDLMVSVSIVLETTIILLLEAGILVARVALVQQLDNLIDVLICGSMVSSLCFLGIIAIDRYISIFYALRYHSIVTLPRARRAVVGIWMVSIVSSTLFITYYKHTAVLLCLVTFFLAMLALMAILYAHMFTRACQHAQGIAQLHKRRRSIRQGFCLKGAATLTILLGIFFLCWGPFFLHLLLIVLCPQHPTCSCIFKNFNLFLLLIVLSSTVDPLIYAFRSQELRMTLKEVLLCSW
Inhibition at 1 μM MC1-R values by entry
API: value field is a number in %; no unit string.

Some entries whose results are on file:
| COMPOUND | Inhibition at 1 μM MC1-R (%) |
| --- | --- |
| NCCCC[C@H]1C(=O)N(CCc2ccc3ccccc3c2)CCN1C(=O)[C@@H](Cc1ccc(Cl)cc1Cl)NC(=O)[C@@H]1C[C@@H](OCc2ccccc2)CN1 [Example 25] | 21 |
| CCCCCCC(=O)N[C@@H](COCc1ccccc1)C(=O)N[C@H](Cc1ccccc1Cl)C(=O)N1CCN(CCc2c[nH]c3ccccc23)C(=O)[C@@H]1CCCCN [Example 11] | 96 |

Now for the compound whose Inhibition at 1 μM MC1-R we want.
Notebook: pull reported Inhibition at 1 μM MC1-R for MC1-R (B-16 mouse melanoma cells) (Mus musculus), entry CNC(=N)NCCC[C@H]1C(=O)N(CCc2ccc3ccccc3c2)CCN1C(=O)[C@H](N)Cc1ccc(Cl)cc1Cl [Example 72]
19
